# Test system: P. vulgatus WT;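 note: active when median AUC fell below 0.1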
# Assay info: growth AUC normalised to DMSO control (median) (fraction of control); higher = less growth inhibition, active = hit call of the paper;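 active = normalised median growth AUC below 0.1 of DMSO control; inactive = AUC 0.1 or higher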
# Setup conditions: 20 µM
Counter-ions that a name gives are not always drawn.
Parameter call: string, one of y = active, n = inactive

Examples from the recorded data:
Molecule: CC(C(=O)O)c1ccc(C(=O)c2cccs2)cc1 (stereo not drawn) [Suprofen]
Label class: n

Molecule: CN(C)CCC[C@@]1(c2ccc(F)cc2)OCc2cc(C#N)ccc21 [Escitalopram oxalate]
Label class: n

Molecule: NC[C@@H]1O[C@H](O[C@H]2[C@@H](O)[C@H](O[C@@H]3[C@@H](O)[C@H](N)C[C@H](N)[C@H]3O[C@H]3O[C@H](CO)[C@@H](O)[C@H](O)[C@H]3N)O[C@@H]2CO)[C@H](N)[C@@H](O)[C@@H]1O [Paromomycin sulfate]
Label class: n

Exam item: What did the test return for CCCCCCC[N+](CC)(CC)CCCCc1ccc(Cl)cc1 [Clofilium tosylate] ?
Marked response: n

Exam item: Cool, now C[C@@H](c1ncncc1F)[C@](O)(Cn1cncn1)c1ccc(F)cc1F [Voriconazole]
Marked response: n

Exam item: Cool, now Nc1ncnc2c1ncn2[C@@H]1O[C@H](CO)[C@@H](O)[C@@H]1O [Vidarabine]
Marked response: n

Exam item: Cool, now Oc1c(I)cc(Cl)c2cccnc12 [Clioquinol]
Marked response: y

Exam item: Cool, now Cn1c(=O)c2nc[nH]c2n(C)c1=O [Theophylline monohydrate]
Marked response: n

Exam item: Cool, now N[C@@H](CCC(=O)N[C@@H](CS)C(=O)NCC(=O)O)C(=O)O [Glutathione]
Marked response: n

Exam item: Cool, now CCN(CC)C(=O)c1ccc(O)c(OC)c1 [Ethamivan]
Marked response: n

Exam item: Cool, now Oc1ccc(OCc2ccccc2)cc1 [Monobenzone]
Marked response: n

Exam item: Cool, now CN(C)CCc1c[nH]c2ccc(Cn3cncn3)cc12 [Rizatriptan benzoate]
Marked response: n

Exam item: Cool, now CO/N=C(\C(=O)N[C@@H]1C(=O)N2C(C(=O)O)=C(COC(C)=O)CS[C@H]12)c1csc(N)n1 [Cefotaxime sodium salt]
Marked response: y
